Target: Beta-2 adrenergic receptor (Canis lupus familiaris)
Sequence (P54833 whole entry): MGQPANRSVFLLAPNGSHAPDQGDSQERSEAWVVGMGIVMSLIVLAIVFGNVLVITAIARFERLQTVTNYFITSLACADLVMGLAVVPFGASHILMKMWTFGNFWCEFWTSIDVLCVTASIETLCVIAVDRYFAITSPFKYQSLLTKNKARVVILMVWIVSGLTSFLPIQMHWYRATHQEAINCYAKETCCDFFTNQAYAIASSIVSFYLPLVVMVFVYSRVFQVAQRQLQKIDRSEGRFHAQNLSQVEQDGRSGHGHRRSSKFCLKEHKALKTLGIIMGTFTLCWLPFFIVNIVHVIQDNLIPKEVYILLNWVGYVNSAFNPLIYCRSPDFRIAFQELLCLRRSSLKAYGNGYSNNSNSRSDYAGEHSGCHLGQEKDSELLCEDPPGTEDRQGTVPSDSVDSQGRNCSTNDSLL
measurementType: pKi
Notebook: values listed as pKi are -log10 of the concentration (mol/L).

// pKi lookup, molecule = `Cl.NC[C@@H]1O[C@H](c2ccccc2)Cc2c1ccc(Br)c2O` , result: 4.74

###

Target: D(1A) dopamine receptor (Rattus norvegicus, UniProt P18901)
Sequence (P18901 whole entry): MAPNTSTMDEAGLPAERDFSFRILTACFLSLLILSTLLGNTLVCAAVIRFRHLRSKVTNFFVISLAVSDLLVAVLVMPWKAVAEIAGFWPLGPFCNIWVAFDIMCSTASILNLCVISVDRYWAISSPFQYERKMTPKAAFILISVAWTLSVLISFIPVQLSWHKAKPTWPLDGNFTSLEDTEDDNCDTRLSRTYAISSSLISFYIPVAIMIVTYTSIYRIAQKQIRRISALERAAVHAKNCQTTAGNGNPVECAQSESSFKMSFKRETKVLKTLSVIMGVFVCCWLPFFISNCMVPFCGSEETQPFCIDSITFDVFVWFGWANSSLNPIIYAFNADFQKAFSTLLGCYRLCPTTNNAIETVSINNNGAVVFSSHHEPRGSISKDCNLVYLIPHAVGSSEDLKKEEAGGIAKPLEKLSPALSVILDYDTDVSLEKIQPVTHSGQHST
Experiment: Binding affinity for dopamine receptor D1
measurementType: Ki (nM)
Give your result in nM as a bare value.

# `NC[C@H]1O[C@H](c2ccccc2)Cc2c1ccc(Br)c2O` with D(1A) dopamine receptor (Rattus norvegicus, UniProt P18901): Ki is 366

Observed Ki, D(1A) dopamine receptor (Rattus norvegicus, UniProt P18901), `NC[C@@H]1O[C@H](C2CCCCC2)Cc2c1ccc(O)c2O` : 5.4

Simply: `CNC[C@@H]1O[C@H](C2CCCCC2)Cc2c1ccc(C)c2O` , D(1A) dopamine receptor (Rattus norvegicus, UniProt P18901), Ki = 263

Summary line: `Cc1ccc2c(c1O)C[C@@H](C1CCCCC1)O[C@H]2CN(C)C` , D(1A) dopamine receptor (Rattus norvegicus, UniProt P18901), reported Ki = 284

Ki on D(1A) dopamine receptor (Rattus norvegicus, UniProt P18901) for `NC[C@@H]1O[C@H](c2ccccc2)Cc2c(O)cccc21` is 103

The compound `COc1ccc2c(c1O)C[C@@H](c1ccccc1)O[C@H]2CN` on D(1A) dopamine receptor (Rattus norvegicus, UniProt P18901): Ki was 166

Entry `Cl.NC[C@@H]1O[C@H](c2ccccc2)Cc2c1ccc(Br)c2O` , D(1A) dopamine receptor (Rattus norvegicus, UniProt P18901) data, Ki value: 5.1

The reported D(1A) dopamine receptor (Rattus norvegicus, UniProt P18901) Ki of `Br.Cc1ccc2c(c1O)C[C@@H](C1CCCCC1)O[C@H]2CN` is 86.4

The measured Ki that `CCCNC[C@@H]1O[C@H](C2CCCCC2)Cc2c1ccc(C)c2O` showed for D(1A) dopamine receptor (Rattus norvegicus, UniProt P18901) is 2820
